src = paper PMC8016166

SYSTEM NAME: 5-HT2CR (Rattus norvegicus, UniProt P08909)
Construct: from tissue; host or cells: frontal cortex of male Sprague-Dawley rats
Sequence (P08909 33-460): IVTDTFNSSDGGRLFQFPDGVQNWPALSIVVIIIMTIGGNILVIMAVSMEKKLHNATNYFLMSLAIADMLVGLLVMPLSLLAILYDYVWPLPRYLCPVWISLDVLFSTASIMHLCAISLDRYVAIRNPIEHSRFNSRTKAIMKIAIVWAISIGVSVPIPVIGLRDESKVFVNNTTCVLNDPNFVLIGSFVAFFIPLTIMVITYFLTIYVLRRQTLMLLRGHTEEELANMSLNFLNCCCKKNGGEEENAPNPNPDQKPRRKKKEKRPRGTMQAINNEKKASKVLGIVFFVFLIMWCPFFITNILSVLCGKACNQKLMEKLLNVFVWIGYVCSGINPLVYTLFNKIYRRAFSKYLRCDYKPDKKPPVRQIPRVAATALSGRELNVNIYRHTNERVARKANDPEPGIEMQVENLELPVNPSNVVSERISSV
PROTOCOL TEXT: Radioligand binding at 5-HT2C on rat frontal cortex membranes
ASSAY CONTEXT: Antilog [pKi (5-HT1AR) – pKi (5-HT2CR)]
READOUT LABEL: selectivity 5-HT2/5-HT1A
Answer with the value's number alone.

>  <COMPOUND>
c1ccc(C2(c3ccccc3)OC[C@@H](CNCCOc3ccccc3-c3ccncc3)O2)cc1 [(R)-1]

>  <selectivity 5-HT2/5-HT1A>
204

$$$$
>  <COMPOUND>
Cn1cncc1-c1ccccc1OCCNCC1COC(c2ccccc2)(c2ccccc2)O1 (racemic)

>  <selectivity 5-HT2/5-HT1A>
45

$$$$

Hello, please tell me recorded selectivity 5-HT2/5-HT1A for this one: Cn1cncc1-c1ccccc1OCCNC[C@@H]1COC(c2ccccc2)(c2ccccc2)O1 [(R)-2]
105

Hello, please tell me recorded selectivity 5-HT2/5-HT1A for this one: Cn1cncc1-c1ccccc1OCCNC[C@H]1COC(c2ccccc2)(c2ccccc2)O1 [(S)-2]
78

Hello, please tell me recorded selectivity 5-HT2/5-HT1A for this one: c1ccc(C2(c3ccccc3)OCC(CNCCOc3ccccc3-c3ccncc3)O2)cc1 (racemic)
40

Hello, please tell me recorded selectivity 5-HT2/5-HT1A for this one: c1ccc(C2(c3ccccc3)OC[C@H](CNCCOc3ccccc3-c3ccncc3)O2)cc1 [(S)-1]
102
